molecular target: PLK1-T210D (Homo sapiens, UniProt P53350, T210D); construct: GST (N, cleaved yes); assay: Inhibitory effect against PLK1 activity (Method A), PLK1-T210D, [γ-33P]ATP peptide phosphorylation; conditions: 50 μM ATP, 50 μM substrate peptide, 25° C., 20 minutes
Sequence (P53350 whole entry T210D): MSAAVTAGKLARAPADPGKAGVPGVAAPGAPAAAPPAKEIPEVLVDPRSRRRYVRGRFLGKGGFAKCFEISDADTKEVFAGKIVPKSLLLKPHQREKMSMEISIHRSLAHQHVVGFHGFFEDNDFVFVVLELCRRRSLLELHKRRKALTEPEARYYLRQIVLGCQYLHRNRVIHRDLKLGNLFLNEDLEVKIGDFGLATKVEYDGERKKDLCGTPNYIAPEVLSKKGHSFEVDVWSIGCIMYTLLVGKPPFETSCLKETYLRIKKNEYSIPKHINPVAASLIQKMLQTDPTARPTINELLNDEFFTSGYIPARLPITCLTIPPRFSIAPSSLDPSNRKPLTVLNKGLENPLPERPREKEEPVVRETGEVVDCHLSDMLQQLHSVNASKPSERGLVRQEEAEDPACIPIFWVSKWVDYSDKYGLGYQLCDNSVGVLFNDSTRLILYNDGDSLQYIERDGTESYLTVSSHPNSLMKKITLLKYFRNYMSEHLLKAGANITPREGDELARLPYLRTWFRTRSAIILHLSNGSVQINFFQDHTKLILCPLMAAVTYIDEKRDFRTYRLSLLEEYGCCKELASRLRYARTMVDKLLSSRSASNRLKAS
Each entry below carries its recorded pIC50.
// pIC50: -log10(molar conc.)

CCc1cccn2c(-c3nc(N[C@@H](C)c4ccc(C(O)[C@H]5CCCN5C)cc4)ncc3C#N)cnc12 (stereo partly drawn) ... 7.96

Input: Which pIC50 reading was recorded for the compound CCc1cccn2c(-c3nc(N[C@@H](C)c4ccc(C(O)C5CCN(C)CC5)cc4)ncc3C#N)cnc12 (single isomer, unassigned) ?
Output: 8.39

Input: Repeat with CCc1cccn2c(-c3nc(N[C@@H](C)c4ccc(C(O)[C@@H]5CCCN(C)C5)cc4)ncc3C#N)cnc12 (single isomer, unassigned)
Output: 8.15
